# ASSAYED_TARGET: type-B natriuretic peptide receptor in immortalized human corneal epithelial (CEPI-17-CL4) cells (Homo sapiens)
# Construct: primary human corneal epithelial cells (P-CEPI) were isolated from human donor eyes; endogenous in cells
# Sequence (P20594 23-1047): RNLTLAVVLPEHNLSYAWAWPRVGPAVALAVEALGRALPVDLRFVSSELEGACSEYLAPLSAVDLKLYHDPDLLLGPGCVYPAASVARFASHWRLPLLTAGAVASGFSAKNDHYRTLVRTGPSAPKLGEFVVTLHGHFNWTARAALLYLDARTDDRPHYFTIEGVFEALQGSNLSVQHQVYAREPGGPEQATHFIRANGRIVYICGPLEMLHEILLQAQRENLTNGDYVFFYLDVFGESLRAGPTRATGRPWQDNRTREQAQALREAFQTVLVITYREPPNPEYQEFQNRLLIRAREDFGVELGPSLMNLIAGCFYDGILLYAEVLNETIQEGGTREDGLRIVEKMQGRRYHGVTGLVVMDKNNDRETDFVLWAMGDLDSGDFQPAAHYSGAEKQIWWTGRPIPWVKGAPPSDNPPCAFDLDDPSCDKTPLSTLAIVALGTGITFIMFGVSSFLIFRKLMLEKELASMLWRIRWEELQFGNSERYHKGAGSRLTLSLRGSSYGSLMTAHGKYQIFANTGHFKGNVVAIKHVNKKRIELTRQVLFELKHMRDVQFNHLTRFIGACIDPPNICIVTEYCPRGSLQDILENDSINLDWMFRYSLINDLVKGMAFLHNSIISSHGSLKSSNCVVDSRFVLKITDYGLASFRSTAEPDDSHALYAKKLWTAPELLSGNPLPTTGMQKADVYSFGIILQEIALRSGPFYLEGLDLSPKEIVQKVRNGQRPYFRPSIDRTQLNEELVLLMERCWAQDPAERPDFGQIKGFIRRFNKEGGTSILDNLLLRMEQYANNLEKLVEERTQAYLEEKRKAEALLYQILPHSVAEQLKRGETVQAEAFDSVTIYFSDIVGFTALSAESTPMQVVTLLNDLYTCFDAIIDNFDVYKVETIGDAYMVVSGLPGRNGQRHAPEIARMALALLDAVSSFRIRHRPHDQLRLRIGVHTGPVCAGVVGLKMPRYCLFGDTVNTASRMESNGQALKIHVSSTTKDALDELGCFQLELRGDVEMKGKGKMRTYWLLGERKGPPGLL
# PROCEDURE_TEXT: Antagonism of CNP fragment-induced cGMP production in immortalized human corneal epithelial (CEPI-17-CL4) cells
# CONDITIONS_USED: mean ± SEM

{"SMILES_RECORD": "O=C1Nc2ccccc2C1=O", "Ki": "18 µM"}
